target: T1, p2S (p2 peptide biotinylated through its free cysteine) (human, also: biotinylated (maleimide PEO2-biotin) on one of the two Cys, which one not given here); assay: SPR (BIAcore-2000), IgG injected over immobilized p2S peptide;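 also: CM5 chip with immobilized peptide, IgG at 0.5–1000 nM in PBST, 3 min association and 3.5 min dissociation, reference-cell subtracted, rates fitted by 1:1 Langmuir model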
T1 construct: The peptide has two cysteines; also called b-p2S
T1 peptide: RPRYACCPGWKRT
Where no end group is shown, it is not given here.
metric-name: kon (M⁻¹ s⁻¹)
Respond numerically; units are M⁻¹ s⁻¹ and should not be typed.

{"columns": ["binder", "value-measured"],
 "data": [
  ["4F11.v9 IgG (antibody, V domains shown, IgG; Kabat numbering) VH: EVQLVESGGGLVQPGGSLRLSCAASGHTRTTYGMSWVRQAPGKGLEWVGWINTHSGVPTYADDFKGRFTISRDNSKNTVYLQMNSLRAEDTAVYYCARLGSSAVDYWGQGTLVTVSS VL: DIQMTQSPSSLSASVGDRVTITCKASQSVDYDGDSYMSWYQQKPGKAPKLLIYGASNLESGVPSRFSGSGSGTDFTLTISSLQPEDFATYYCQQNNEDPYTFGQGTKVEIK", 264000],
  ["4F11.v4 IgG (antibody, V domains shown, IgG; Kabat numbering) VH: EVQLVESGGGLVQPGGSLRLSCAASGHTFTTYGMSWVRQAPGKGLEWVGWINTHSGVPTYADDFKGRFTISRDNSKNTVYLQMNSLRAEDTAVYYCARLGSSAVDYWGQGTLVTVSS VL: DIQMTQSPSSLSASVGDRVTITCKASQSVDYRGDSYMSWYQQKPGKAPKLLIYGASNLESGVPSRFSGSGSGTDFTLTISSLQPEDFATYYCQQNNEDPYTFGQGTKVEIK", 231000]
]}

Kindly review the next binder as well.
Consider the binder 4F11.v3 IgG (antibody, name in Kabat numbering, V domains shown, IgG; Kabat numbering) VH: EVQLVESGGGLVQPGGSLRLSCAASGHTFTTYGMSWVRQAPGKGLEWVGWINTHSGVPTYADDFKGRFTISRDNSKNTVYLQMNSLRAEDTAVYYCARLGSSAVDYWGQGTLVTVSS VL: DIQMTQSPSSLSASVGDRVTITCKASQSVDYDGDSYMSWYQQKPGKAPKLLIYGASNLESGVPSRFSGSGSGTDFTLTISSLQPEDFATYYCQQNNEDPYTFGQGTKVEIKR and give its measured kon.
84500
